IC50: recorded values
# targetOfAssay: recombinant human MMP-9 (Homo sapiens (Human))
# Sequence (P14780 94-707): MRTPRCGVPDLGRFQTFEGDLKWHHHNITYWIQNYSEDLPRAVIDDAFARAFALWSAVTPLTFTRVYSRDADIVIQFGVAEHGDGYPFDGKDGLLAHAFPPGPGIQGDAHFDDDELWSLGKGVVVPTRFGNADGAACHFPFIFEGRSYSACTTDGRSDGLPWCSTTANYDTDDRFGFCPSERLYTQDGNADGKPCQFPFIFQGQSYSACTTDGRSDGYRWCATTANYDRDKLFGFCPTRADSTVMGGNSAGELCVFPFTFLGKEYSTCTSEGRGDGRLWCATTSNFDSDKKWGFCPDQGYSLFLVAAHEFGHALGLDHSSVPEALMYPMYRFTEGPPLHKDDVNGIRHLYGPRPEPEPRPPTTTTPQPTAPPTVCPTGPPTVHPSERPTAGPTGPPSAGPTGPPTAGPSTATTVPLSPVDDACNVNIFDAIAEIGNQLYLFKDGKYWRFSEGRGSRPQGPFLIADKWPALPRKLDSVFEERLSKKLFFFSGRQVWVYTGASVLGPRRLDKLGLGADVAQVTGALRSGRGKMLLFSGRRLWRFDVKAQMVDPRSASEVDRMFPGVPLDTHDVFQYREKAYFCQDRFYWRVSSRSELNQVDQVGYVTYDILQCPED
# protocol: MMP selectivity assay, MMP-9
# conditionLabel: Table 2 selectivity profile; read-out: MMP-9 Activity (IC50 class)
propertyLabel: IC50

compound="O=C1NC(=O)C(c2ccncc2Sc2ccc(OCc3ccccc3CO)cc2)N1 (stereo not shown)" propertylabel=IC50 valuemeasured="> 1000 nM"
compound="Cc1cc(COc2ccc(Sc3ncoc3C3NC(=O)NC3=O)cc2)ccn1 (stereo not shown)" propertylabel=IC50 valuemeasured="> 1000 nM"
compound="NC(=O)c1cccc(COc2ccc(Sc3ccncc3C3NC(=O)NC3=O)cc2)c1 (stereo not shown)" propertylabel=IC50 valuemeasured="> 1000 nM"
compound="Cc1cc(COc2ccc(Sc3cnn(C)c3C3NC(=O)NC3=O)cc2)ccn1 (stereo not shown)" propertylabel=IC50 valuemeasured="> 1000 nM"
compound="O=C1NC(=O)C(c2sccc2Sc2ccc(OCc3cccc(CO)c3)cc2)N1 (stereo not shown)" propertylabel=IC50 valuemeasured="> 1000 nM"
compound="Cc1cc(COc2ccc(Sc3ccncc3C3NC(=O)NC3=O)c(F)c2)ccn1 (stereo not shown)" propertylabel=IC50 valuemeasured="> 1000 nM"
compound="Cc1cc(COc2ccc(Sc3ncn(C)c3C3NC(=O)NC3=O)cc2)ccn1 (stereo not shown)" propertylabel=IC50 valuemeasured="> 1000 nM"
compound="Cc1cc(COc2ccc(Sc3ccncc3C3NC(=O)NC3=O)c(Cl)c2)ccn1 (stereo not shown)" propertylabel=IC50 valuemeasured="> 1000 nM"
compound="O=C1NC(=O)C(c2cnccc2Sc2ccc(OCc3cccc(O)c3)cc2)N1 (stereo not shown)" propertylabel=IC50 valuemeasured="> 1000 nM"
compound="O=C1NC(=O)C(c2sccc2Sc2ccc(OCc3ccccc3CO)cc2)N1 (stereo not shown)" propertylabel=IC50 valuemeasured="> 1000 nM"
compound="Cc1cc(COc2ccc(Sc3ccncc3C3NC(=O)NC3=O)cc2C)ccn1 (stereo not shown)" propertylabel=IC50 valuemeasured="> 1000 nM"
compound="O=C1NC(=O)C(c2ccncc2Sc2ccc(OCc3cccc(CO)c3)cc2)N1 (stereo not shown)" propertylabel=IC50 valuemeasured="> 1000 nM"
compound="CCC1(c2cnccc2Sc2ccc(OCc3cccc(C)c3)cc2)NC(=O)NC1=O (stereo not shown)" propertylabel=IC50 valuemeasured="> 1000 nM"
